Tested on: Saccharomyces cerevisiae
Method Notes: transcriptional activation domain activity (GFP:mCherry ratio, weighted mean of sorted bins, harmonized to initial dataset scale) (arbitrary fluorescence ratio units); higher = stronger transcriptional activation
Assay Setup: beta-estradiol 1 µM; induction time 4 h
For each entry below, report its transcriptional activation domain activity value.
When you answer, write just the number.

Qu. Please report transcriptional activation domain activity for the following sequence: NTCCCFFVCSFPSSKQKTLGALREGSWTFFFCFFLFFFLFFLVFFCFFLFCFF
Ans. 24000

Qu. Please report transcriptional activation domain activity for the following sequence: VYSYKKRMWHYFLFDLCYYVNIINLVYIWILPQSAWLFVACYCLSHGSVASAV
Ans. 58700

Qu. Please report transcriptional activation domain activity for the following sequence: QFARFTLEETNLMWKRAANPELTPLTSFPPLWVATRLRLFYVINSILSYFMTT
Ans. 60800

Qu. Please report transcriptional activation domain activity for the following sequence: GVFCLALWVPATGFELVSFFALLVGAIFGVFWMVAGLKNLQSSLSISWLVIAL
Ans. 65200

----------
Tested on: Saccharomyces cerevisiae
Method Notes: transcriptional activation domain activity (GFP:mCherry ratio, weighted mean of sorted bins, harmonized to initial dataset scale) (arbitrary fluorescence ratio units); higher = stronger transcriptional activation
Assay Setup: beta-estradiol 1 µM; induction time 4 h
Would you please tag the item YES when its transcriptional activation domain activity is 60000 or above, and NO when it is below?

Qu. Would you say LIVVTLSWDVAVIITFLKHRITLRRLKMQSFLSLSFLFKMLIICIFRFFIGVC shows transcriptional activation domain activity at minimum 60000?
Ans. YES

Qu. Would you say CGLCALVYHSLRFQLQSNMDVLLFRYNGSYKMVVVAATTKHLLLEDIKIKLLC shows transcriptional activation domain activity at minimum 60000?
Ans. NO

Qu. Would you say DVVDHSGDLFIRCNEIFGRQCIRNYIPSDPIWLIPLLGLLHRRLMYKVRLIYP shows transcriptional activation domain activity at minimum 60000?
Ans. YES

Qu. Would you say MDCLLNPVVPCLVCFLPFVCKIAVSLHLPLWSICCVCVSIRIALVCTLIAFII shows transcriptional activation domain activity at minimum 60000?
Ans. NO

Qu. Would you say SISQFCWIWYTRPRPLQDICYYDSASRGPWGCFLLLLRLRFIRFACIGAIITL shows transcriptional activation domain activity at minimum 60000?
Ans. YES

Qu. Would you say AYLTFCIYLCFWSYLNLRLAGLFFFSLFIILFPPRVSWLHYFSFLFYSGVFCF shows transcriptional activation domain activity at minimum 60000?
Ans. NO

Qu. Would you say PENWTMDSWPLYWPQALIDTIPSLQLSIPPMDLTTLDNPLAPFAFFMFLFSWQ shows transcriptional activation domain activity at minimum 60000?
Ans. NO

Qu. Would you say SFWNTAFHPVYFNTTDLVLSFPFLFLPSFSSFFSFLFCIVIFTIVQRLYVFIS shows transcriptional activation domain activity at minimum 60000?
Ans. YES

Qu. Would you say MPIPLRLPFPFCFWVRMGLLDVYYHTVGGLYGYVLGGGVVICWRWWCFSFFCL shows transcriptional activation domain activity at minimum 60000?
Ans. NO

Qu. Would you say KPAGIMMFYFPCLYGTFLVGCLGHEINILSMAIANAKLFLLSFLMRGMLCTWN shows transcriptional activation domain activity at minimum 60000?
Ans. NO

Qu. Would you say EEEKPKEEKPKEEKPEEEKPEEQKPEEEKPKEKPEEQKPEAPAPTPAPEPAPE shows transcriptional activation domain activity at minimum 60000?
Ans. NO

Qu. Would you say ILVYLSSVKLRNYRGNTYSFIHLTPWVPLDLLKYACDFLGLLSGFNLLPLYFQ shows transcriptional activation domain activity at minimum 60000?
Ans. NO

----------
Tested on: Saccharomyces cerevisiae
Method Notes: transcriptional activation domain activity (GFP:mCherry ratio, weighted mean of sorted bins, harmonized to initial dataset scale) (arbitrary fluorescence ratio units); higher = stronger transcriptional activation
Assay Setup: beta-estradiol 1 µM; induction time 4 h
Would you please tag the item T when its transcriptional activation domain activity is 50000 or above, and F when it is below?

Qu. Would you say FFFFLLFFPLPFFPSSFPFFFLIHLLISSSLVFPFSSSSSSLTQVFWCLCFFF shows transcriptional activation domain activity at minimum 50000?
Ans. T

Qu. Would you say ATGLAWGVWGKKGAPRFRGSCAERFDTLSSTEWKGSRLVRLVARFDNTVRSVP shows transcriptional activation domain activity at minimum 50000?
Ans. F

Qu. Would you say MGLGVLYHLSLLFPFLFFFLYLSSSFPSFLILFFFFFGYSPSAVWVFLFCFGQ shows transcriptional activation domain activity at minimum 50000?
Ans. T

Qu. Would you say AVRLLSTKKISMSQANIGQTYFAHYCLSLLRLARYALSTMIKMFGPVYGWWLF shows transcriptional activation domain activity at minimum 50000?
Ans. T

Qu. Would you say ALYSLFIECTLAPMLLKAIKDRVGEITLDFCWRAYKVYLTSICYLWKNVSLII shows transcriptional activation domain activity at minimum 50000?
Ans. F

Qu. Would you say KPEPAGEKAEVANGEGAPEGNRRRPSGRGRGRGRGGRGARGGRDAKEEGAEEA shows transcriptional activation domain activity at minimum 50000?
Ans. T

Qu. Would you say VVLWHIVISLRFWFNFVSVVPALRWVYLSIYEIKVDYKNLIEYTLPQLCSLFI shows transcriptional activation domain activity at minimum 50000?
Ans. T

Qu. Would you say PSSLVAQGQCAVAGDDVLEALAIRGIDFKLYAGILLLIALVYRLLLYIVLVFK shows transcriptional activation domain activity at minimum 50000?
Ans. T

Qu. Would you say FFFFVIFSLFHLPFACIFRFFPNDLFACYLYSPFFFPIDFCPFALFPPFFLSF shows transcriptional activation domain activity at minimum 50000?
Ans. T

Qu. Would you say SADDSAGEARQREKSEESGTRRSRKSHDRESKEGAEGADEAESWERSSKKKSR shows transcriptional activation domain activity at minimum 50000?
Ans. F

Qu. Would you say VMSYLLCVALVFPVMIVLMLLGCVWFLIVLFFMLGVLIFIMCIGPLYVILKAP shows transcriptional activation domain activity at minimum 50000?
Ans. F

----------
For each entry below, report its transcriptional activation domain activity value.
System: Saccharomyces cerevisiae
Method Notes: transcriptional activation domain activity (GFP:mCherry ratio, weighted mean of sorted bins, harmonized to initial dataset scale) (arbitrary fluorescence ratio units); higher = stronger transcriptional activation
Assay Setup: beta-estradiol 1 µM; induction time 4 h
When you answer, write just the number.

Qu. State recorded transcriptional activation domain activity with Saccharomyces cerevisiae, entry IAAAGSNAASGHPDAKRAKTGASGSRAGSPSGSPPGSKPASRAGSPGAPRVPA , no comment.
Ans. 16900

Qu. State recorded transcriptional activation domain activity with Saccharomyces cerevisiae, entry YTRCEVIYLKRSLPSYFGPSMLQFTILFILIVTNSIVLLGLFLLLCRTLWGLA , no comment.
Ans. 19500

Qu. State recorded transcriptional activation domain activity with Saccharomyces cerevisiae, entry MALHALLHLLNVYYQGCLPYNVLVITVCTMLYKLFFSKSFYCRFRRFGRPWYL , no comment.
Ans. 54300

Qu. State recorded transcriptional activation domain activity with Saccharomyces cerevisiae, entry GYLHHILKLFDCAFGISYPQLHHVLEVRTRALLLAGLNLTFVLDGPLPMWKAA , no comment.
Ans. 54900

Qu. State recorded transcriptional activation domain activity with Saccharomyces cerevisiae, entry ASASPARAPAAEVPPPVEIHVGDRCEVDRATGVARGTVRFVGEAEMPPPRPGA , no comment.
Ans. 42400

----------
Tested on: Saccharomyces cerevisiae
Method Notes: transcriptional activation domain activity (GFP:mCherry ratio, weighted mean of sorted bins, harmonized to initial dataset scale) (arbitrary fluorescence ratio units); higher = stronger transcriptional activation
Assay Setup: beta-estradiol 1 µM; induction time 4 h
Measurement Name: transcriptional activation domain activity
When you answer, write just the number.

Qu. State recorded transcriptional activation domain activity with Saccharomyces cerevisiae, entry GEASAEKTKKRSRASKGGEDGKKKKSKEARVESNGANGHAGGDAAAAAAAEQQ , no comment.
Ans. 30400

Qu. State recorded transcriptional activation domain activity with Saccharomyces cerevisiae, entry MIPLQVLSLIDAKNLILLLTKFFSCVALSSCLYWDSCYNLIHGYLVLYKIIYT , no comment.
Ans. 59400

Qu. State recorded transcriptional activation domain activity with Saccharomyces cerevisiae, entry MVTISTDWFGWFVYLRFSGHLGVNCFYFIIRFFLFWVAFQLHVCIFSLPLVSC , no comment.
Ans. 51400

Qu. State recorded transcriptional activation domain activity with Saccharomyces cerevisiae, entry MLLSAHFIDFFLLLLLLLLLHLIVPLIFILHHSLLFFLVLPIVCNYFFSWLPV , no comment.
Ans. 78400

Qu. State recorded transcriptional activation domain activity with Saccharomyces cerevisiae, entry RFVTNILVILSDRVNMEQLLKRIRKKAADFYHFTDLWQWCCAQFVKLLRKVYN , no comment.
Ans. 55100

Qu. State recorded transcriptional activation domain activity with Saccharomyces cerevisiae, entry PDEDEVVENAEKPKRRRRAKPTEEEQNEEQQNEEDAVENAGKKKRGKRTKPTE , no comment.
Ans. 39900

Qu. State recorded transcriptional activation domain activity with Saccharomyces cerevisiae, entry PVPFDPPMPVDGLGFLPGDGWMDAMDDIGPLEALDLGFLPVDFWEPHFNRQWN , no comment.
Ans. 135000

Qu. State recorded transcriptional activation domain activity with Saccharomyces cerevisiae, entry ALLNGQCGGANYTGPTVCVCGLNIIQGFMRIRKCSSLYMIVLALKLIFITFFS , no comment.
Ans. 90200

Qu. State recorded transcriptional activation domain activity with Saccharomyces cerevisiae, entry SASSSAPRKPVSISIGGGGGGAAAAAAAPPADKKPVSISIGGSSAKAAAPAAA , no comment.
Ans. 38800

Qu. State recorded transcriptional activation domain activity with Saccharomyces cerevisiae, entry YALIHFFRLYRSGHGPIRMFFLHIQALYNLFNLVFSWFALANLWLAFSIIIRL , no comment.
Ans. 75800

Qu. State recorded transcriptional activation domain activity with Saccharomyces cerevisiae, entry MISFPLFDPVVFNPFLFYDILSSFCSCFSFFFSLLFFPILQYPFLFFSCFFIA , no comment.
Ans. 60100

Qu. State recorded transcriptional activation domain activity with Saccharomyces cerevisiae, entry MCCLLLFSPSFLCFFFAFFFYFTFYMTHLSDFSFLQRAIGLTYVFIWLIYRAH , no comment.
Ans. 38100

Qu. State recorded transcriptional activation domain activity with Saccharomyces cerevisiae, entry LLILLLAFKKTSKEDPYEAIRLMSLAIGDQYAQGPDRFRLSCQWAVLARMISH , no comment.
Ans. 38400

Qu. State recorded transcriptional activation domain activity with Saccharomyces cerevisiae, entry VDFVKHLISCFSVVGEDNFACTLKGFGWMYLTHVYFFFNVFVALNLQLIILLS , no comment.
Ans. 60000

Qu. State recorded transcriptional activation domain activity with Saccharomyces cerevisiae, entry IMMFPMFIALSILYAMVYLGVLFSFFSVLFFFSVVYFLEPGGLCILDVFFYYY , no comment.
Ans. 68000

Qu. State recorded transcriptional activation domain activity with Saccharomyces cerevisiae, entry WFAKFVVRLVYCLAWVRGQLLRRSSPIQTMMLALRCPHVLPWIDAGTPRLYIY , no comment.
Ans. 54700

Qu. State recorded transcriptional activation domain activity with Saccharomyces cerevisiae, entry MWGRWVGWSLIFLELYLDHLILQFIPPTRFIVTLFFFFSFLFIWYFCLLSLSL , no comment.
Ans. 28800

Qu. State recorded transcriptional activation domain activity with Saccharomyces cerevisiae, entry ILFIGGLFLIIAPQMTFHVPAYRIRLCEAACFLCRNFLVFLKRKSVAVIVEMF , no comment.
Ans. 59000

Qu. State recorded transcriptional activation domain activity with Saccharomyces cerevisiae, entry FLLSTSFYFVFILFLFHFYIVLFLLPPPSLSFPLSLPYLSAFIVLTPTQLWPA , no comment.
Ans. 77600

Qu. State recorded transcriptional activation domain activity with Saccharomyces cerevisiae, entry DTNLPTNPEAIQLHGDEDIKAWLVLAKNLAINPSRILVVLHRAVRGTQTPALG , no comment.
Ans. 40400

Qu. State recorded transcriptional activation domain activity with Saccharomyces cerevisiae, entry SREGKGGGAGRGKGGEQGGGMGEGKQGGGGGEAERGSREGKQRGEAGGRGKEE , no comment.
Ans. 44600

Qu. State recorded transcriptional activation domain activity with Saccharomyces cerevisiae, entry MRFWFLYLFLLFGIGWVGLALLYYYRIFCLFLCNIRILFLLVCFISTHSIIYS , no comment.
Ans. 46200

Qu. State recorded transcriptional activation domain activity with Saccharomyces cerevisiae, entry SSIVYLHPPLLHCLFLFPLLLLRLLAILAFSFLYLINLVLGTLGSCFSFFFRD , no comment.
Ans. 34600

Qu. State recorded transcriptional activation domain activity with Saccharomyces cerevisiae, entry GVVWCGVIFGFVAFHILCLFDVFFSFFFFFFEFWFWFFGFVYLNGLGWVGVGW , no comment.
Ans. 40100

Qu. State recorded transcriptional activation domain activity with Saccharomyces cerevisiae, entry MRLNICKDLWIHSAFRMLSDISAASLFLVSRSYFIIIFTVASLGYTRMLSLYH , no comment.
Ans. 51900

Qu. State recorded transcriptional activation domain activity with Saccharomyces cerevisiae, entry YIAPCGSWTPYMNLMLGGTVCIFIGFDVFSPFSYRGFITNYFGLFWFCIMFIF , no comment.
Ans. 53600

Qu. State recorded transcriptional activation domain activity with Saccharomyces cerevisiae, entry MPYKKGHFVWILVYAIAVQSGNVMKKRVGVVTLVLKMPSRKILPPWSTLVCKT , no comment.
Ans. 47300

Qu. State recorded transcriptional activation domain activity with Saccharomyces cerevisiae, entry RSSLSSPPCPRSRRRMRVRSSTTTSTSPPARSSSADRTRPTSTTTAARPPACP , no comment.
Ans. 22000

Qu. State recorded transcriptional activation domain activity with Saccharomyces cerevisiae, entry TGGSLFGANKPAFGNAASTSGPFGGGASSGFGGNTGAFGSPASTALGATTGEC , no comment.
Ans. 51300

Qu. State recorded transcriptional activation domain activity with Saccharomyces cerevisiae, entry AKSAQRRADEPGVMSLGELAVLWVKRARHLGQSLLRVVLVSYAVDLPANCVAL , no comment.
Ans. 30100

Qu. State recorded transcriptional activation domain activity with Saccharomyces cerevisiae, entry LLLLLLYFFLFLFLFLFLCSQVLCLGQVDLVDLEKPFVFQSFFEIFPTLLFLP , no comment.
Ans. 35100

Qu. State recorded transcriptional activation domain activity with Saccharomyces cerevisiae, entry EGEVTTTSSEEETTTEEETTRTRPTRTTTTEEEQTTTDASSTTTSQDEETTTP , no comment.
Ans. 39200
